Target: recombinant human IL17a (binding to its receptor IL17R) (Homo sapiens)
Construct: 177-IR (IL17R/Fc)
Sequence (Q16552 20-155 limits assumed): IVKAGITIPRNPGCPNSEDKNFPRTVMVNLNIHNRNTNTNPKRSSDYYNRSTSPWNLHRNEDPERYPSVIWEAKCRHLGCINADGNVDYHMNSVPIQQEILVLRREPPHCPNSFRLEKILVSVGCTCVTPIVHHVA
Test: IL-17 competition ELISA I (IL17a coated, IL17R/Fc binding)
pIC50: −log10 of the molar value.
property-measured: pIC50

## Input API: value(readout= pIC50, system= recombinant human IL17a (binding to its receptor IL17R) (Homo sapiens), query= O=C1CNC(=O)[C@@H](Cc2ccc(NC(=O)[C@H](CC3CCC3)NC(=O)Cc3ccccc3)cc2)NC(=O)CC2(CCCC2)CC(=O)NCCCCCN1 [Compound 246] )
## Output > 7.00

Others:
## Input I'm curious: which pIC50 was measured for O=C1CNC(=O)[C@@H](Cc2ccc(NC(=O)[C@@H](NC(=O)c3cccc(O)c3)C3CCCCC3)cc2)NC(=O)CC2(CCCC2)CC(=O)NCCCCCN1 [Compound 376] tested on recombinant human IL17a (binding to its receptor IL17R) (Homo sapiens)?
## Output 6.00 to 7.00

## Input For recombinant human IL17a (binding to its receptor IL17R) (Homo sapiens), provide pIC50 of O=C1CNC(=O)[C@@H](Cc2ccc(NC(=O)[C@H](Cc3ccccc3Cl)NC(=O)c3cncnc3)cc2)NC(=O)CC2(CCCC2)CC(=O)NCCCCCN1 [Compound 327] please.
## Output > 7.00
